Biological target: T1, human IL-12 (human, UniProt P29460 23-328; P29459 23-219)
T1 construct: also called Interleukin-12
T1 sequence 1: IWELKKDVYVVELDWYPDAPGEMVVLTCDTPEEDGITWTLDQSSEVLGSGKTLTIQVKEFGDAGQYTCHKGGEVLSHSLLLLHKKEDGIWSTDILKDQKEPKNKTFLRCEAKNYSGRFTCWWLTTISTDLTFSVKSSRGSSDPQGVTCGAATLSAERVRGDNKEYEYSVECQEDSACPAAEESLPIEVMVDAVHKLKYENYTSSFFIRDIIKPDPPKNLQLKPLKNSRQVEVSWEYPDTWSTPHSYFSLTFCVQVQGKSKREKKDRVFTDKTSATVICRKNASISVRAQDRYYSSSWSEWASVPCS
T1 sequence 2: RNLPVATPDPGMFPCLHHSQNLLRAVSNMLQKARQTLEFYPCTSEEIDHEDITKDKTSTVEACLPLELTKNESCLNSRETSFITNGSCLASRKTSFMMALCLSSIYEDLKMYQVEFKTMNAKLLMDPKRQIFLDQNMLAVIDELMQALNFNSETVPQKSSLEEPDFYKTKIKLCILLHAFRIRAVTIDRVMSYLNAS
Assay: SPR (Biacore T200), 37 C, pH 7.4; captured antibody, IL-12 analyte
Protocol: The affinity of anti-IL-12 antibodies binding to human IL-12 at pH 7.4 were determined at 37 degrees C. using Biacore T200 instrument (Cytiva). Anti-human Fc antibody (Cytiva) was immobilized onto all flow cells (FCs) of a CM4 sensor chip using amine coupling kit (Cytiva). All antibodies and analytes were prepared in ACES pH 7.4 containing 20 mM ACES, 150 mM NaCl, 0.05% Tween 20, 0.005% NaN₃. Each antibody was captured onto the sensor surface by anti-human Fc antibody. […]
Kindly state pKd for each of the entries shown.
One number for each entry, as −log10 of the molar value.

Anti-IL-12 antibody Ab1 variant V37S, L45Q VH/A43Q, Y49A VL (antibody, name in Kabat numbering, V domains shown, Ab1 with VH/VL interface substitutions; Kabat numbering) VH: QVQLVQSGAEVKKPGSSVKVSCKASGGTFSDYYLHWSRQAPGQGQEWMGWIDPENGDTEYAPKFQGRVTITADESTSTAYMELSSLRSEDTAVYYCARNKELRYFDVWGQGTLVTVSS VL: DIVMTQSPLSLPVTPGEPASISCRASQSISINLHWYQQKPGQQPRLLIAFASQSISGVPSRFSGSGSGTDFTLTISSLQPEDFATYYCQQSNSFPLTFGQGTKVEIKR :: 8.50

With those in mind, consider the next binder.
Problem: What does the record list as pKd for Anti-IL-12 antibody Ab1 variant Y91A VH/Y49A, Y87L VL (antibody, name in Kabat numbering, V domains shown, Ab1 with VH/VL interface substitutions; Kabat numbering) VH: QVQLVQSGAEVKKPGSSVKVSCKASGGTFSDYYLHWVRQAPGQGLEWMGWIDPENGDTEYAPKFQGRVTITADESTSTAYMELSSLRSEDTAVYACARNKELRYFDVWGQGTLVTVSS VL: DIVMTQSPLSLPVTPGEPASISCRASQSISINLHWYQQKPGQAPRLLIAFASQSISGVPSRFSGSGSGTDFTLTISSLQPEDFATYLCQQSNSFPLTFGQGTKVEIKR ?
Solution: 8.55
